- Tested on: NOMO1
- Protocol: cell viability relative to DMSO control; higher = less cytotoxic
- Test conditions: RPMI 5 mM glucose + 10% FBS; 48 h; 15.4 µM
Field 'label' (enum: criterion met / criterion not met). Set to criterion met when cell viability is strictly under 80%; else criterion not met.

>  <Compound>
CNC(=O)c1ccc(Nc2cc(Nc3ccccc3[S+](=O)([O-])C(C)C)c3cc[nH]c3n2)nc1

>  <Assayed target>
NOMO1

>  <Label>
criterion met

$$$$
>  <Compound>
CC(=O)Oc1ccccc1C(=O)Nc1ncc([N+](=O)[O-])s1

>  <Assayed target>
NOMO1

>  <Label>
criterion not met

$$$$
>  <Compound>
CC(N[C@H]1CCCC[C@@H]1NC(=O)c1ccc(Cl)cc1)c1cccc2ccccc12 (stereo partly drawn)

>  <Assayed target>
NOMO1

>  <Label>
criterion met

$$$$
>  <Compound>
C=C[C@H]1CN2CCC1C[C@@H]2C(O)c1ccnc2ccc(OC)cc12 (stereo partly drawn)

>  <Assayed target>
NOMO1

>  <Label>
criterion not met

$$$$
>  <Compound>
COC1=C(OCCCN2CCOCC2)C=CC\3=C1/N=C(/NC(=O)C4=CN=C(N)N=C4)N5CC/N=C35

>  <Assayed target>
NOMO1

>  <Label>
criterion met

$$$$
>  <Compound>
CCCCCNC(=O)N1CCC(CN(Cc2ccc(Cl)cc2)Cc2ccc([N+](=O)[O-])s2)C1 (stereo not drawn)

>  <Assayed target>
NOMO1

>  <Label>
criterion not met

$$$$
>  <Compound>
Cc1coc2c1C(=O)C(=O)c1c-2ccc2c1CCCC2(C)C

>  <Assayed target>
NOMO1

>  <Label>
criterion not met

$$$$
>  <Compound>
O=P(O)(O)C(O)(Cn1ccnc1)P(=O)(O)O

>  <Assayed target>
NOMO1

>  <Label>
criterion not met

$$$$
>  <Compound>
CC1=CC(=CC(=C1C\C2=N\CCN2)C)C(C)(C)C

>  <Assayed target>
NOMO1

>  <Label>
criterion met

$$$$
>  <Compound>
O=C(O)c1cccnc1Nc1cccc(C(F)(F)F)c1

>  <Assayed target>
NOMO1

>  <Label>
criterion not met

$$$$
>  <Compound>
COc1cccc2c1C(=O)c1c(O)c3c(c(O)c1C2=O)C[C@@](O)(C(=O)CO)C[C@@H]3O[C@H]1C[C@H](N)[C@H](O)[C@H](C)O1

>  <Assayed target>
NOMO1

>  <Label>
criterion met

$$$$
>  <Compound>
COc1ccc(C(=O)CC2(O)C(=O)Nc3c(Cl)ccc(Cl)c32)cc1 (stereo not drawn)

>  <Assayed target>
NOMO1

>  <Label>
criterion met

$$$$

---

- Test system: P12-Ichikawa
- Protocol: cell viability relative to DMSO control; higher = less cytotoxic
- Test conditions: HPLM + 10% dialyzed FBS; 48 h; 0.0632 µM

>  <Compound>
COc1ccc(C(=O)CC2(O)C(=O)Nc3c(Cl)ccc(Cl)c32)cc1 (stereo not given)

>  <Unit annotation>
%

>  <cell viability>
117

$$$$
>  <Compound>
CC1=CC(=CC(=C1C\C2=N\CCN2)C)C(C)(C)C

>  <Unit annotation>
%

>  <cell viability>
105

$$$$
>  <Compound>
CCCCCNC(=O)N1CCC(CN(Cc2ccc(Cl)cc2)Cc2ccc([N+](=O)[O-])s2)C1 (stereo not given)

>  <Unit annotation>
%

>  <cell viability>
111

$$$$
>  <Compound>
O=C(CCCN1CCN(c2ccc(F)cc2)CC1)NC1c2ccccc2CSc2ccccc21 (stereo not given)

>  <Unit annotation>
%

>  <cell viability>
121

$$$$
>  <Compound>
CCc1ccc(/C=C2/SC(=S)NC2=O)cc1

>  <Unit annotation>
%

>  <cell viability>
90.9

$$$$
>  <Compound>
CC(C)OC(=O)[C@H](C)N[P@](=O)(OC[C@H]1O[C@@H](N2\C=C/C(=O)NC2=O)[C@](C)(F)[C@@H]1O)OC3=CC=CC=C3

>  <Unit annotation>
%

>  <cell viability>
102

$$$$
>  <Compound>
Cc1csc(-c2nnc(Nc3ccc(Oc4ncccc4-c4ccnc(N)n4)cc3)c3ccccc23)c1

>  <Unit annotation>
%

>  <cell viability>
16.6

$$$$
>  <Compound>
COc1cc[nH]c2ncc(C(=O)C(=O)N3CCN(C(=O)c4ccccc4)C[C@H]3C)c1-2

>  <Unit annotation>
%

>  <cell viability>
112

$$$$
>  <Compound>
CC[C@@H]([C@H](C)O)n1ncn(-c2ccc(N3CCN(c4ccc(OCC5CO[C@@](Cn6cncn6)(c6ccc(F)cc6F)C5)cc4)CC3)cc2)c1=O (stereo not given in full)

>  <Unit annotation>
%

>  <cell viability>
98.3

$$$$
>  <Compound>
Cc1cc2c(C(N)=O)cccc2n1-c1nc2c(c(NCc3ccccc3)n1)COCC2

>  <Unit annotation>
%

>  <cell viability>
99.8

$$$$
>  <Compound>
O=C(O)c1cc(/N=N/c2ccc([S+](=O)([O-])Nc3ccccn3)cc2)ccc1O

>  <Unit annotation>
%

>  <cell viability>
113

$$$$
>  <Compound>
CC[C@H]1OC(=O)[C@H](C)C(=O)[C@H](C)[C@@H](O[C@H]2O[C@H](C)C[C@H](N(C)C)[C@H]2O)[C@](C)(OC)C[C@@H](C)C(=O)[C@H](C)[C@H]2N(CCCCn3cnc(-c4cccnc4)c3)C(=O)O[C@]12C

>  <Unit annotation>
%

>  <cell viability>
120

$$$$
>  <Compound>
Cc1cccc(Nc2ccncc2[S+](=O)([O-])NC(=O)NC(C)C)c1

>  <Unit annotation>
%

>  <cell viability>
101

$$$$
>  <Compound>
COC1=C(OCCCN2CCOCC2)C=CC\3=C1/N=C(/NC(=O)C4=CN=C(N)N=C4)N5CC/N=C35

>  <Unit annotation>
%

>  <cell viability>
96

$$$$
>  <Compound>
CCCCN(CCCC)CC(O)c1cc(Cl)cc2c1-c1ccc(Cl)cc1/C2=C/c1ccc(Cl)cc1 (stereo not given)

>  <Unit annotation>
%

>  <cell viability>
107

$$$$
>  <Compound>
C[C@]12CC[C@H]3[C@@H](CCC4=CC(=O)CC[C@@H]43)[C@@H]1CC[C@@H]2OC(=O)CCc1ccccc1

>  <Unit annotation>
%

>  <cell viability>
113

$$$$
>  <Compound>
COc1cc(C(=O)N2CC[C@@H](O)[C@@H](N)C2)cc2nc(-c3cc4ccccc4n3CC3CC3)n(C)c12

>  <Unit annotation>
%

>  <cell viability>
121

$$$$
>  <Compound>
CC(=O)Oc1ccccc1C(=O)Nc1ncc([N+](=O)[O-])s1

>  <Unit annotation>
%

>  <cell viability>
104

$$$$
>  <Compound>
CN(C)CC(C)(C)CNc1nn2c(-c3ccccc3)nnc2cc1C1CCC1

>  <Unit annotation>
%

>  <cell viability>
112

$$$$
>  <Compound>
CCCNC(=O)Nc1ccc(Oc2ncnc3cc(OC)c(OC)cc23)cc1Cl

>  <Unit annotation>
%

>  <cell viability>
98.7

$$$$
>  <Compound>
Cc1ccc([S+](=O)([O-])OCC(=O)Nc2ccc(C(=O)O)c(O)c2)cc1

>  <Unit annotation>
%

>  <cell viability>
126

$$$$
>  <Compound>
COC1=CC=C(C(=C1)OC(C)C)C/2=N/[C@@H]([C@@H](N2C(=O)N3CCNC(=O)C3)C4=CC=C(Cl)C=C4)C5=CC=C(Cl)C=C5

>  <Unit annotation>
%

>  <cell viability>
109

$$$$
>  <Compound>
CN1CCCN(CC1)C2=CC=C3C(=O)\C(=C/4SC5=C(C=CC=C5)N4C3=N2)C(=O)NCC6=CN=C(C)C=N6

>  <Unit annotation>
%

>  <cell viability>
110

$$$$
>  <Compound>
Cc1coc2c1C(=O)C(=O)c1c-2ccc2c1CCCC2(C)C

>  <Unit annotation>
%

>  <cell viability>
106

$$$$
>  <Compound>
CC(C)c1cc(C(C)C)c(CC(=O)N[S+](=O)([O-])Oc2c(C(C)C)cccc2C(C)C)c(C(C)C)c1

>  <Unit annotation>
%

>  <cell viability>
103

$$$$

Reference source for all entries: the supplement of paper PMC11451515
